// values below are reported pIC50
System: CAL-39
Assay: cells
Format: functional, cell-based
Details: Homo sapiens
Description: SANGER: Inhibition of human CAL-39 cell growth in a cell viability assay.
pIC50: −log10 of the molar value.

Would you please look over these solved cases?
OC[C@H](Cc1ccccc1)Nc1nc(Oc2ccc3c(c2)CCC3)nc2c1ncn2Cc1ccc(-c2ccccc2)cc1    < 4.99
COc1ccc(-c2cc3nccn3c(Nc3ncccc3C(N)=O)n2)cc1OC    5.45
COC(=O)[C@H](CCSC)NC(=O)c1ccc(NC[C@@H](N)CS)cc1-c1ccccc1    < 5.99
NC(=O)c1ccc(N(C(N)=O)c2c(F)cccc2F)nc1-c1ccc(F)cc1F    < 5.70
CS(=O)(=O)N1CCN(Cc2cc3nc(-c4cccc5[nH]ncc45)nc(N4CCOCC4)c3s2)CC1    5.69

Exam item: Any idea what pIC50 came out for NC(=O)Nc1cc(-c2cccc(F)c2)sc1C(=O)N[C@H]1CCCNC1 on CAL-39?
Marked response: < 5.70

Exam item: Please provide the recorded pIC50 for O=C1NC(=O)c2c1c(-c1ccccc1Cl)cc1[nH]c3ccc(O)cc3c21 , tested on CAL-39.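 Note: cell viability assay measuring growth inhibition of CAL-39 cells.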
Marked response: < 5.70

* * *

System: GR-ST
Test: cells
Assay type: functional, cell-based, Homo sapiens
Settings: gr-st
Description: SANGER: Inhibition of human GR-ST cell growth in a cell viability assay.
pIC50: −log10 of the molar value. Where a SMILES comes first, the peptide text is derived from it. The star is where a group is joined. Cbz = O=C(OCc1ccccc1)*
RESULT_TYPE: pIC50

Exam item: Report pIC50 for CC(C)C[C@@H](C=O)NC(=O)[C@H](CC(C)C)NC(=O)[C@H](CC(C)C)NC(=O)OCc1ccccc1 [MG-132] (Cbz-Leu-Leu-Leu-aldehyde) please.
Marked response: < 6.00

* * *

# IC50 values compiled below
Tested on: JAR;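 note: growth inhibition of human JAR cells determined with a cell viability assay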
Assay: cells
Format: functional, cell-based, Homo sapiens
Settings: Homo sapiens, JAR
Description: SANGER: Inhibition of human JAR cell growth in a cell viability assay.

Consider the reported IC50 for these molecules:
CN(NC(=O)CC(=O)NN(C)C(=S)c1ccccc1)C(=S)c1ccccc1 [ELESCLOMOL]    0.00597 µM
NC(=O)c1ccc(N(C(N)=O)c2c(F)cccc2F)nc1-c1ccc(F)cc1F [VX-702]    > 2 µM
O=S(=O)(O)c1ccc2cc(/N=N/c3cc(S(=O)(=O)O)c4cccnc4c3O)ccc2c1    > 16 µM
C/C(=C\c1csc(C)n1)[C@@H]1C[C@@H]2O[C@]2(C)CCC[C@H](C)[C@H](O)[C@@H](C)C(=O)C(C)(C)[C@@H](O)CC(=O)O1 [PATUPILONE]    > 0.032 µM

Consider the additional molecule presented here.
Exam item: Provide value of IC50 for this record tested with JAR: C[C@@H](Oc1cc(-c2cnn(C3CCNCC3)c2)cnc1N)c1c(Cl)ccc(F)c1Cl [CRIZOTINIB]
Marked response: > 2 µM

* * *

Parameter: log10 IC50. Scope: all listed entries.
Test system: HT-144
Experiment: cells
Assay type: functional, cell-based, Homo sapiens
Conditions: Homo sapiens, HT-144
Description: SANGER: Inhibition of human HT-144 cell growth in a cell viability assay.
log10 IC50, nM

Here is how some compounds turned out for log10 IC50.
CN(NC(=O)CC(=O)NN(C)C(=S)c1ccccc1)C(=S)c1ccccc1    1.11
NC(=O)Nc1cc(-c2cccc(F)c2)sc1C(=O)N[C@H]1CCCNC1    2.53
CN(C)CCOc1ccc(-c2nc(-c3ccncc3)c(-c3ccc4c(c3)CC/C4=N\O)[nH]2)cc1    2.64

Exam item: Please give the measured log10 IC50 for this compound: COc1ccc(-c2cc3nccn3c(Nc3ncccc3C(N)=O)n2)cc1OC
Marked response: 3.57

Exam item: Could you tell me which log10 IC50 is on file for C/C(=C\c1csc(C)n1)[C@@H]1C[C@@H]2O[C@]2(C)CCC[C@H](C)[C@H](O)[C@@H](C)C(=O)C(C)(C)[C@@H](O)CC(=O)O1 ?
Marked response: 0.24

Exam item: Which log10 IC50 is listed for Cc1cc(N2CCOCC2)cc2[nH]c(-c3c(NC[C@@H](O)c4cccc(Cl)c4)cc[nH]c3=O)nc12 ?
Marked response: 3.26

* * *

Recorded pIC50 values for a group of compounds are listed next.
Test system: NCI-H2107
Test: SANGER: Inhibition of human NCI-H2107 cell growth in a cell viability assay.
Type: functional, cell-based
pIC50: −log10 of the molar value. Where a SMILES comes first, the peptide text is derived from it. The star is where a group is joined. Cbz = O=C(OCc1ccccc1)*

The following compounds have reported results that may help.
COc1ccc(N(C(=O)Oc2c(C)cccc2C)c2ccnc(Nc3ccc(N4CCN(C)CC4)cc3)n2)c(OC)c1    < 5.29
NC(=O)c1cccc(-c2cc(Nc3ccc(OC(F)(F)F)cc3)ncn2)c1    < 5.89
CC(C)C[C@@H](C=O)NC(=O)[C@H](CC(C)C)NC(=O)[C@H](CC(C)C)NC(=O)OCc1ccccc1 [MG-132] (Cbz-Leu-Leu-Leu-aldehyde)    < 6.00

Then this compound:
Exam item: Field request: pIC50 | item: C=CC(=O)N1CCCC(Nc2nc(Nc3ccc(N(C)C(=O)CC)cc3)nc3[nH]cnc23)C1 (centres undefined)
Marked response: < 4.99

* * *

Test system: HCC2218;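 note: cell viability assay read-out, with IC50 given as the concentration that inhibits growth of the cell line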
Assay: cells
Assay type: functional, cell-based, Homo sapiens
Conditions: Homo sapiens, HCC2218
Description: SANGER: Inhibition of human HCC2218 cell growth in a cell viability assay.
Where a SMILES comes first, the peptide text is derived from it. The star is where a group is joined. Cbz = O=C(OCc1ccccc1)*
RESULT_TYPE: IC50

Some solved entries appear below for comparison.
CC(C)C[C@@H](C=O)NC(=O)[C@H](CC(C)C)NC(=O)[C@H](CC(C)C)NC(=O)OCc1ccccc1 [MG-132] (Cbz-Leu-Leu-Leu-aldehyde)    > 1000 nM
C/C(=C\c1csc(C)n1)[C@@H]1C[C@@H]2O[C@]2(C)CCC[C@H](C)[C@H](O)[C@@H](C)C(=O)C(C)(C)[C@@H](O)CC(=O)O1 [PATUPILONE]    30.8 nM
NC(=O)c1ccc(N(C(N)=O)c2c(F)cccc2F)nc1-c1ccc(F)cc1F [VX-702]    497 nM

Then there is this compound:
Exam item: Report IC50 for Nc1ccccc1NC(=O)c1ccc(CNC(=O)OCc2cccnc2)cc1 [ENTINOSTAT] please.
Marked response: 1170 nM

* * *

System: D283 Med
Assay: cells
Assay type: functional, cell-based, Homo sapiens
Settings: d283 med
Description: SANGER: Inhibition of human D-283MED cell growth in a cell viability assay.
Where a SMILES comes first, the peptide text is derived from it. The star is where a group is joined. Cbz = O=C(OCc1ccccc1)*
RESULT_TYPE: IC50

Exam item: Entry under review: CC(C)C[C@@H](C=O)NC(=O)[C@H](CC(C)C)NC(=O)[C@H](CC(C)C)NC(=O)OCc1ccccc1 [MG-132] (Cbz-Leu-Leu-Leu-aldehyde) . Reported IC50?
Marked response: > 1 µM

* * *

Test system: EGI-1;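 note: cell viability readout used to gauge growth inhibition of EGI-1 cells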
Experiment: cells
Format: functional, cell-based
Settings: Homo sapiens
Description: SANGER: Inhibition of human EGI-1 cell growth in a cell viability assay.
pIC50: −log10 of the molar value.
Listed next: entries and their corresponding pIC50.

Exam item: // query pIC50 value for entry OC[C@H](Cc1ccccc1)Nc1nc(Oc2ccc3c(c2)CCC3)nc2c1ncn2Cc1ccc(-c2ccccc2)cc1
Marked response: < 4.99

* * *

System: 8505C
Assay: cells
Assay type: functional, cell-based
Settings: Homo sapiens
Description: SANGER: Inhibition of human 8505C cell growth in a cell viability assay.
pIC50: −log10 of the molar value.
RESULT_TYPE: pIC50

NC(=O)c1ccc(N(C(N)=O)c2c(F)cccc2F)nc1-c1ccc(F)cc1F [VX-702]    < 5.70
CN(NC(=O)CC(=O)NN(C)C(=S)c1ccccc1)C(=S)c1ccccc1 [ELESCLOMOL]    7.98
CN(C)CCOc1ccc(-c2nc(-c3ccncc3)c(-c3ccc4c(c3)CC/C4=N\O)[nH]2)cc1 [SB590885]    < 5.30

Exam item: Which pIC50 value is on record for NC1(c2ccc(-c3nc4ccn5c(=O)[nH]nc5c4cc3-c3ccccc3)cc2)CCC1 [MK-2206] ?
Marked response: < 5.40

* * *

Test system: IST-SL2;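 note: growth inhibition of human IST-SL2 cells, read out by a cell viability assay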
Assay: cells
Format: functional, cell-based, Homo sapiens
Settings: Homo sapiens, IST-SL2
Description: SANGER: Inhibition of human IST-SL2 cell growth in a cell viability assay.
RESULT_TYPE: pIC50
The scale used: pIC50 is minus the common logarithm of the concentration in molar units.

Exam item: Would you kindly share the measured pIC50 for COc1ccc(N(C(=O)Oc2c(C)cccc2C)c2ccnc(Nc3ccc(N4CCN(C)CC4)cc3)n2)c(OC)c1 ?
Marked response: 5.83

* * *

Tested on: TYK-nu
Test: cells
Assay type: functional, cell-based
Conditions: Homo sapiens
Description: SANGER: Inhibition of human TYK-nu cell growth in a cell viability assay.
Examples of compounds with documented pIC50 follow.
Interpret pIC50 as the negative base-10 log of the concentration measured in mol/L.

Worked examples, 2 compounds total:
CN(C)CCOc1ccc(-c2nc(-c3ccncc3)c(-c3ccc4c(c3)CC/C4=N\O)[nH]2)cc1    5.74
CS(=O)(=O)N1CCN(Cc2cc3nc(-c4cccc5[nH]ncc45)nc(N4CCOCC4)c3s2)CC1    5.71

Kindly consider the entry below.
Exam item: What measured pIC50 is associated with O=C(NCCCNc1nc(Nc2cccc(NC(=O)N3CCCC3)c2)ncc1I)c1cccs1 on TYK-nu?
Marked response: 5.53
